Entries annotated with measured thermal stability score
test system: HeLa Kyoto; test: thermal stability score vs G1/S (z-score of summed log2 fold changes over temperatures); higher = more thermally stable than in G1/S; details: cell cycle stage: early G1 (4.5 h after nocodazole release);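 further: synchronized HeLa Kyoto cells, proteins quantified by TMT10plex mass spectrometry, three biological replicates, mitosis taken 0.5 h after nocodazole release, G1/S directly after double thymidine block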

Example sequences with recorded thermal stability score:
{"columns": ["sequenceInput", "thermal stability score"],
 "data": [
  ["MSGLRVYSTSVTGSREIKSQQSEVTRILDGKRIQYQLVDISQDNALRDEMRALAGNPKATPPQIVNGDQYCGDYELFVEAVEQNTLQEFLKLA [SH3BGRL3]", -2.26],
  ["MGHPPLLPLLLLLHTCVPASWGLRCMQCKTNGDCRVEECALGQDLCRTTIVRLWEEGEELELVEKSCTHSEKTNRTLSYRTGLKITSLTEVVCGLDLCNQGNSGRAVTYSRSRYLECISCGSSDMSCERGRHQSLQCRSPEEQCLDVVTHWIQEGEEGRPKDDRHLRGCGYLPGCPGSNGFHNNDTFHFLKCCNTTKCNEGPILELENLPQNGRQCYSCKGNSTHGCSSEETFLIDCRGPMNQCLVATGTHEPKNQSYMVRGCATASMCQHAHLGDAFSMNHIDVSCCTKSGCNHPDLDVQYRSGAAPQPGPAHLSLTITLLMTARLWGGTLLWT [PLAUR]", 0.197],
  ["MIIYRDLISHDEMFSDIYKIREIADGLCLEVEGKMVSRTEGNIDDSLIGGNASAEGPEGEGTESTVITGVDIVMNHHLQETSFTKEAYKKYIKDYMKSIKGKLEEQRPERVKPFMTGAAEQIKHILANFKNYQFFIGENMNPDGMVALLDYREDGVTPYMIFFKDGLEMEKC [TPT1]", 0.357],
  ["MAYHSGYGAHGSKHRARAAPDPPPLFDDTSGGYSSQPGGYPATGADVAFSVNHLLGDPMANVAMAYGSSIASHGKDMVHKELHRFVSVSKLKYFFAVDTAYVAKKLGLLVFPYTHQNWEVQYSRDAPLPPRQDLNAPDLYIPTMAFITYVLLAGMALGIQKRFSPEVLGLCASTALVWVVMEVLALLLGLYLATVRSDLSTFHLLAYSGYKYVGMILSVLTGLLFGSDGYYVALAWTSSALMYFIVRSLRTAALGPDSMGGPVPRQRLQLYLTLGAAAFQPLIIYWLTFHLVR [YIF1A]", -0.13]
]}

Kindly note: HeLa Kyoto, MAAGTSSYWEDLRKQARQLENELDLKLVSFSKLCTSYSHSSTRDGRRDRYSSDTTPLLNGSSQDRMFETMAIEIEQLLARLTGVNDKMAEYTNSAGVPSLNAALMHTLQRHRDILQDYTHEFHKTKANFMAIRERENLMGSVRKDIESYKSGSGVNNRRTELFLKEHDHLRNSDRLIEETISIAMATKENMTSQRGMLKSIHSKMNTLANRFPAVNSLIQRINLRKRRDSLILGGVIGICTILLLLYAFH [GOSR1] , thermal stability score value reported: -0.21

Kindly note: HeLa Kyoto, MWGACKVKVHDSLATISITLRRYLRLGATMAKSKFEYVRDFEADDTCLAHCWVVVRLDGRNFHRFAEKHNFAKPNDSRALQLMTKCAQTVMEELEDIVIAYGQSDEYSFVFKRKTNWFKRRASKFMTHVASQFASSYVFYWRDYFEDQPLLYPPGFDGRVVVYPSNQTLKDYLSWRQADCHINNLYNTVFWALIQQSGLTPVQAQGRLQGTLAADKNEILFSEFNINYNNELPMYRKGTVLIWQKVDEVMTKEIKLPTEMEGKKMAVTRTRTKPVPLHCDIIGDAFWKEHPEILDEDS [THG1L] , thermal stability score value reported: 0.242
